- STUDY_SYSTEM: Dipeptidyl-Peptidase IV (DPPIV) (Homo sapiens)
- Construct: gene DPP4
- Sequence (P27487 whole entry): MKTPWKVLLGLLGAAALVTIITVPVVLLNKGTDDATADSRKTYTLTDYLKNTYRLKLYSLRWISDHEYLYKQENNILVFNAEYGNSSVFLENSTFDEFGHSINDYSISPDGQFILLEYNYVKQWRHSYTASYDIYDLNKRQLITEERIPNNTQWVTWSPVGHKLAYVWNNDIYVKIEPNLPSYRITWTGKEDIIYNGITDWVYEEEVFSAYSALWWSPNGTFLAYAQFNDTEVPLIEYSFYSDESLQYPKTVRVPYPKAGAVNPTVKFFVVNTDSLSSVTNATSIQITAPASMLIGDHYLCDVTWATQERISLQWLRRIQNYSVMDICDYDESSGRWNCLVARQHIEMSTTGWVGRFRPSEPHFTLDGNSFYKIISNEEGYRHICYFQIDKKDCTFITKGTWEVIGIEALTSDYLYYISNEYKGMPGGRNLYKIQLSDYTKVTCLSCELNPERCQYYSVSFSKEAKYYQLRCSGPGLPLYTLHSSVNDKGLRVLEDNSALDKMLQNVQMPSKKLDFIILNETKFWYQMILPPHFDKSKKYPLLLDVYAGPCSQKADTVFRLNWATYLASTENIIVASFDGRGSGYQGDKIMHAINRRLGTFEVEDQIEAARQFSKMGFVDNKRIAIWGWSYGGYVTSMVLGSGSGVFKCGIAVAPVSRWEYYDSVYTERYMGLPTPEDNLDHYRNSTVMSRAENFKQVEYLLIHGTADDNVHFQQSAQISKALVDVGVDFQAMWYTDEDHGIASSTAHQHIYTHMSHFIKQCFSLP
- ASSAY_PROCEDURE: fluorometric DPPIV activity assay kit, % inhibition at […]
- Format: biochemical
# if value of inhibition at 100 µM reaches 80%, tag label 1; if it stays below, tag label 0

These recorded examples may help you get a feel for the data.
- COMPOUND: "N=C(NC(=O)c1ccccc1)NC(=O)c1ccccc1 [2n, N,N′-(Iminomethylene)dibenzamide]"
  CLASSIFICATION: "label 1"
- COMPOUND: "COc1ccc(-c2nc(=O)c3ccccc3n2C)cc1"
  CLASSIFICATION: "label 1"

For the next question, use this compound.
Problem: Given the entry `O=c1nc(-c2ccc(C(F)(F)F)cc2)[nH]c2ccccc12` , answer whether its inhibition at 100 µM meets or surpasses 80%.
Solution: label 0
